The measured values listed here are drawn from ChEMBL document CHEMBL1201862.

# System: NCI-H226
# assay_procedure: NCI tumour cell line growth inhibition, 48 h
Calls of active or inactive are those of the source. Rule as the data show it: active = GI50 up to about 1.1 µM and inactive = higher.
This listing pairs compounds with measured GI50.

compound	GI50
COC(=O)c1cccc2cccc(C(=O)Nc3ccc(C)cc3C)c12	> 100 µM (inactive)
CCCC(CCC(=O)O)(CCC(=O)O)[N+](=O)[O-]	> 100 µM (inactive)
OCC1OC(c2n[nH]c3c(O)ncnc23)C(O)C1O (stereo unspecified)	44.9 µM (inactive)
COc1ccc(-c2nc3c(nc2-c2ccc(OC)cc2)C(N)=NS(=O)(=O)N3)cc1	> 100 µM (inactive)
C1CN1c1nc(N2CC2)nc(N2CC2)n1	8.24 µM (inactive)
CC(=O)/C=C/c1cccc(N=S)c1	46 µM (inactive)
COc1ccccc1-c1cc(=O)c2ccccc2n1C1CC1	2.42 µM (inactive)
c1ccc2cc3c(cc2c1)OP1(Oc2cccc4cccnc24)(O3)Oc2cc3ccccc3cc2O1	9.89 µM (inactive)
O=C(Cc1ccccc1)NN1C(=O)C(Cl)C1c1cc(Br)cc(Br)c1O (stereo unspecified)	14.7 µM (inactive)
Sc1nn2c(COc3cccc(OCc4nnc5sc(S)nn45)c3)nnc2s1	> 100 µM (inactive)
CCN(CC)CCCNc1nc(=O)[nH]c(C)c1C(=O)Nc1c2ccccc2nc2ccccc12	14.9 µM (inactive)
O=C(Nc1nc2ccccc2n1Cc1ccccc1)NC12CC3CC(CC(C3)C1)C2	51.6 µM (inactive)
NC(=O)c1ccc2c(c1)S(=O)(=O)c1ccccc1C2=O	> 100 µM (inactive)
CC(=O)O[C@H]1C(=O)[C@@]2(C)C(C(OC(=O)c3ccccc3)[C@]3(O)CC(OC(=O)C(O)C(NC(=O)c4ccccc4)c4cccc(Cl)c4)C(C)=C1C3(C)C)[C@]1(OC(C)=O)CO[C@@H]1C[C@@H]2O (stereo partly specified)	> 10 µM (inactive)
C=C1C(=O)OC2CC3(CO3)C3C(O)C(O)CC3(C)CC12 (stereo unspecified)	> 100 µM (inactive)
CC1(C)C(C#N)=[N+]([O-])C(C)(C)N1O	> 100 µM (inactive)
C#CCC(N)(CO)C(=O)O (stereo unspecified)	> 100 µM (inactive)
C1=C2SSC3=CC=C(SSc4ccc(s4)SSC4=CC=C(SSC(=C1)S2)S4)S3	> 100 µM (inactive)
CCCCCCC(O)C/C=C/CCCCCC/C(C(=O)OC)=C(/O)C(=O)OCC (stereo unspecified)	> 100 µM (inactive)
COC1/C=C/C=C(/C)Cc2cc(O)c(Cl)c(c2)N(C)C(=O)CC(OC(=O)C(C)C)C2(C)OC2C(C)C2CC1(O)NC(=O)O2 (stereo unspecified)	> 100 µM (inactive)
Cc1ccccc1NC(=O)C(=O)C(C1OC(=O)c2ccccc21)[N+](=O)[O-] (stereo unspecified)	> 100 µM (inactive)
COC1(C)CNCC(C)(C)NC(=O)C(C)(OC)CNCC(C)(C)NC1=O (stereo unspecified)	> 100 µM (inactive)
Clc1ccc(Cl)c(/N=N/c2cc3c4c(c2)CCCN4CCC3)c1	> 10 µM (inactive)
C=CCOC(=O)C1C2OC3(C(C(=O)OC)=C2C(=O)OC)c2ccccc2CCC13 (stereo unspecified)	> 10 µM (inactive)
CCOC(=O)/C=C1\C[C@H](NC(=O)OCc2ccccc2)C(=O)N1CC(=O)OCC	> 100 µM (inactive)
NC(=O)N1N=C2c3ccccc3OC[C@H]2[C@@H]1c1ccccc1	22.5 µM (inactive)
Cc1ccsc1/C=N/Nc1ncccn1	> 100 µM (inactive)
COc1cc(/C=c2/c3ccccc3n3c2cc(-c2ccccc2)[n+]3C)cc(OC)c1OC	7.94 µM (inactive)
O=C(c1ccc(Cl)cc1)C1OC12C(=O)Nc1ccccc12 (stereo unspecified)	20.3 µM (inactive)
O=C(c1cccs1)N1CCCN(C(=O)c2cccs2)C1=S	> 100 µM (inactive)
COC(NC(=O)Nc1ccccc1C)(C(F)(F)F)C(F)(F)F	> 100 µM (inactive)
CC(=O)OC1CCC2(C)C(=CCC3C2CCC2(C)C3CC3OC4(CCC(C)CN4)C(C)C32)C1 (stereo unspecified)	> 100 µM (inactive)
CC(=O)N(CCc1ccccc1)C(C#N)c1ccc(OCCCCCCCCCCOc2ccc(C(C#N)N(CCc3ccccc3)C(C)=O)cc2)cc1 (stereo unspecified)	22 µM (inactive)
CN(CCNC(=O)c1nn(-c2ccccc2)c2c1ccc1ccccc12)CCNC(=O)c1nn(-c2ccccc2)c2c1ccc1ccccc12	2.29 µM (inactive)
c1ccc([P+](CCNCCNCC[P+](c2ccccc2)(c2ccccc2)c2ccccc2)(c2ccccc2)c2ccccc2)cc1	> 100 µM (inactive)
C=C(Cl)C(Cl)(CBr)CCC(Br)C(C)(C)Br (stereo unspecified)	20.1 µM (inactive)
NC(=O)N/N=C(\Cc1cc(=O)oc2cc(O)ccc12)C(=O)Nc1ccccc1C(N)=O	> 100 µM (inactive)
OCCNc1ncnc2[nH]cnc12	> 100 µM (inactive)
O=C1NC(c2cccc(OCc3ccccc3)c2)Nc2ccccc21 (stereo unspecified)	0.274 µM (active)
O=C(/C=C1/Nc2ccc([N+](=O)[O-])cc2NC1O)c1cccc([N+](=O)[O-])c1 (stereo unspecified)	34.8 µM (inactive)
Cc1cccc(NC(=S)N/N=C(/c2ccccc2)c2ccccn2)c1	0.207 µM (active)

----------
# Test system: SN12C
# assay_procedure: NCI tumour cell line growth inhibition, 48 h
Active and inactive are the calls of the source. No stated cut-off is given here; in the data, active = GI50 up to about 1.1 µM and inactive = higher.
Labels: yes (active), no (inactive)

molecule	qualitative_label
CCOC(=O)c1ccc(Nc2cnc3cc(C(F)(F)F)ccc3n2)cc1	no
O=c1ccn(C2OC(CN(O)CCC3C(CO)OC(n4ccc(=O)[nH]c4=O)C3O)C(O)C2O)c(=O)[nH]1 (stereo not given)	no
CC(=O)OCC1=C(C)C[C@H]([C@@H](COC(C)=O)C2CCC3C4C[C@H]5O[C@]56CC=CC(=O)[C@]6(C)C4CC[C@@]32C)OC1=O (stereo not given in full)	yes
O=C(c1ccccc1)N1C2C3CC(OCc4ccccc4)(OCc4ccccc4)C(O3)C21 (stereo not given)	no
COCC(OC)C(CC=C(C#N)C#N)OC (stereo not given)	no
C1=CC(N(c2ccccc2)C2C=CCCC2)CCC1 (stereo not given)	no
C1CN1c1nc(N2CC2)nc(N2CC2)n1	no
CC1=CC(O)(c2ccc(-c3ccccc3Cl)cc2)OC1=O (stereo not given)	no
CC1(C)C2CCC1(C)C(NC(=O)COCCOCC(N)=O)C2 (stereo not given)	no
O=[N+]([O-])/C(Cl)=C(\NCCO)C(Cl)=C(Cl)Cl	no

----------
# Test system: MOLT-4
# assay_procedure: NCI tumour cell line growth inhibition, 48 h
Active and inactive are the calls of the source. Rule as the data show it: active = GI50 up to about 1.1 µM and inactive = higher.
Listed molecules paired with reported GI50
property_label: GI50

In [3]: df
Out[3]:
                                    molecule               result
 0                Cc1cc(/N=N/c2ccccc2C)ccc1N   2.65 µM (inactive)
 1  O=c1[nH]c(C23CC4CC(CC(C4)C2)C3)cc2c1c(=O)oc1ccccc12   10.5 µM (inactive)
 2  CC(C)=CCC\C(C)=C/C=C/C(C)=C\C=C\C(C)=C/C=C/C=C(C)\C=C\C=C(C)/C=C/C=C(/C)CCC=C(C)C  > 100 µM (inactive)
 3       ClCCN1CCC2(CC1)SSC1(CCN(CCCl)CC1)S2   41.5 µM (inactive)
 4  CC(/C=C/C(O)=C1/C(=O)CNC1=O)=C\[C@@H](C)[C@H]1O[C@@]2(C)O[C@H](C(=O)[C@@H]3O[C@@]32C)[C@@H]1C   14.7 µM (inactive)
 5  CCOC(=O)[C@@H]1ON2O[C@H](OC3CCCC3(c3ccccc3)c3ccccc3)C[C@H]3OC(=O)[C@@H]1C32 (some centres undefined)     45 µM (inactive)
 6  CNC1=Nc2ccc(Cl)cc2C(OP(=O)(N2CCOCC2)N2CCOCC2)=NC1  > 100 µM (inactive)
 7  O=C(c1ccccc1)N1C(=S)NC(=N/c2ccccc2)/C1=N\c1ccccc1  > 100 µM (inactive)
 8  CC(=O)Nc1nc(C)c(S(=O)(=O)NC(=O)NC2NC(=O)NC2=O)s1 (centres undefined)  > 100 µM (inactive)
 9  CCOC(=O)NC(=O)c1cn(CCCOC(=O)NCCCCCCNC(=O)OCCCn2cc(C(=O)NC(=O)OCC)c(=O)[nH]c2=O)c(=O)[nH]c1=O   36.3 µM (inactive)
10  N#Cc1ccc(/C=[N+](/C=c2ccc(=C=[N-])cc2)N(CCO)C2=NCCN2)cc1  > 100 µM (inactive)
11  O=C1C2C(C(=O)N1O)N(Cc1ccccc1)C(=O)N2Cc1ccccc1 (centres undefined)  > 100 µM (inactive)
12  O=C(Cc1ccccc1)NN1C(=O)C(Cl)C1c1cc(Br)cc(Br)c1O (centres undefined)   2.62 µM (inactive)
13  NC(=O)N/N=C(\Cc1cc(=O)oc2cc(O)ccc12)C(=O)Nc1ccccc1C(N)=O  > 100 µM (inactive)
14    C#CCC(N)(CO)C(=O)O (centres undefined)  > 100 µM (inactive)
15  CCN(CC)CCNc1ccc2nnn3c4ccc(OC)cc4c(=O)c1c23   1.93 µM (inactive)
16  COc1ccc(C2=C(Cl)C(=O)N(c3ccc(OC)cc3OC)C(=O)C2(Cl)Cl)cc1   5.07 µM (inactive)
17                  CC(=O)Nc1ccccc1Sc1ccccc1  > 100 µM (inactive)
18  CC(=O)OC1CCC2(C)C(=CCC3C2CCC2(C)C3CC3OC4(CCC(C)CN4)C(C)C32)C1 (centres undefined)  > 100 µM (inactive)
